Test system: K24384-001-R-PDC complex spheroid growth;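 also: percent of DMSO vehicle-treated spheroid viability set as 100%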
Experiment: Anticancer human tumor K24384-001-R-PDC patient-derived pancreatic adenocarcinoma cell line growth inhibition [AhR]
Details: second compound 0.316 µM; first compound 0.1 µM; active compounds read low
Measure name: viability, T/C (%)
Answer with a number only, understood to be in %.

# example entries with known answers
Nc1ccn(C2OC(CO)C(O)C2(F)F)c(=O)n1 (centres undefined) + Cc1cncc(-c2nc(NCCc3c[nH]c4ccccc34)c3ncn(C(C)C)c3n2)c1 | 79.1
Nc1ccccc1NC(=O)c1ccc(CNC(=O)OCc2cccnc2)cc1 + CC(CO)NC(=O)c1cc(-c2ccc(Cl)cc2)nn(-c2cnn(C)c2)c1=O | 97.7
COc1ccc([C@@H](O)c2cc(-c3ncnc4cc(N5CCOCC5)ccc34)c(F)cc2Cl)nn1 + Cc1cncc(-c2nc(NCCc3c[nH]c4ccccc34)c3ncn(C(C)C)c3n2)c1 | 106
COc1cccc2c1C(=O)c1c(O)c3c(c(O)c1C2=O)CC(O)(C(=O)CO)CC3OC1CC(N)C(O)C(C)O1 (centres undefined) + Cc1cncc(-c2nc(NCCc3c[nH]c4ccccc34)c3ncn(C(C)C)c3n2)c1 | 39.4
COc1cc(Nc2ncc3c(n2)-c2ccc(Cl)cc2C(c2c(F)cccc2OC)=NC3)ccc1C(=O)O + Cc1ccccc1N=Nc1ccc(NC(=O)c2ccnn2C)c(C)c1 | 68.1

Form field viability, T/C, entry CC1COCCN1c1cc(-c2ccnn2C)c2ccnc(-c3ccn[nH]3)c2n1 (centres undefined) + CC(CO)NC(=O)c1cc(-c2ccc(Cl)cc2)nn(-c2cnn(C)c2)c1=O : 50.9

Form field viability, T/C, entry COc1cc(C2c3cc4c(cc3C(OC3OC5COC(C)OC5C(O)C3O)C3COC(=O)C23)OCO4)cc(OC)c1O (centres undefined) + Cc1ccccc1N=Nc1ccc(NC(=O)c2ccnn2C)c(C)c1 : 92.5

Form field viability, T/C, entry O=C(C=Cc1cccc(S(=O)(=O)Nc2ccccc2)c1)NO + Cc1cncc(-c2nc(NCCc3c[nH]c4ccccc34)c3ncn(C(C)C)c3n2)c1 : 138

Form field viability, T/C, entry CC[C@@]1(O)C(=O)OCc2c1cc1n(c2=O)Cc2cc3c(CN(C)C)c(O)ccc3nc2-1 + CC(CO)NC(=O)c1cc(-c2ccc(Cl)cc2)nn(-c2cnn(C)c2)c1=O : 42.2

Form field viability, T/C, entry Cn1ncnc1C1c2n[nH]c(=O)c3cc(F)cc(c23)NC1c1ccc(F)cc1 (centres undefined) + CC(CO)NC(=O)c1cc(-c2ccc(Cl)cc2)nn(-c2cnn(C)c2)c1=O : 74.8

Form field viability, T/C, entry NS(=O)(=O)OCC1CC(n2ccc3c(NC4CCc5ccccc54)ncnc32)CC1O (centres undefined) + Cc1cncc(-c2nc(NCCc3c[nH]c4ccccc34)c3ncn(C(C)C)c3n2)c1 : 161

Form field viability, T/C, entry CC1COCCN1c1cc(C2(S(C)(=N)=O)CC2)nc(-c2ccnc3[nH]ccc23)n1 (centres undefined) + Cc1ccccc1N=Nc1ccc(NC(=O)c2ccnn2C)c(C)c1 : 115

Form field viability, T/C, entry COc1cc(C2c3cc4c(cc3C(OC3OC5COC(C)OC5C(O)C3O)C3COC(=O)C23)OCO4)cc(OC)c1O (centres undefined) + CC(CO)NC(=O)c1cc(-c2ccc(Cl)cc2)nn(-c2cnn(C)c2)c1=O : 93.4

Form field viability, T/C, entry Cn1ncnc1C1c2n[nH]c(=O)c3cc(F)cc(c23)NC1c1ccc(F)cc1 (centres undefined) + Cc1cncc(-c2nc(NCCc3c[nH]c4ccccc34)c3ncn(C(C)C)c3n2)c1 : 71.8

Form field viability, T/C, entry COc1ccc([C@@H](O)c2cc(-c3ncnc4cc(N5CCOCC5)ccc34)c(F)cc2Cl)nn1 + CC(CO)NC(=O)c1cc(-c2ccc(Cl)cc2)nn(-c2cnn(C)c2)c1=O : 99.5

Form field viability, T/C, entry NS(=O)(=O)OCC1CC(n2ccc3c(NC4CCc5ccccc54)ncnc32)CC1O (centres undefined) + CC(CO)NC(=O)c1cc(-c2ccc(Cl)cc2)nn(-c2cnn(C)c2)c1=O : 147

Form field viability, T/C, entry O=C(c1cc(Cc2n[nH]c(=O)c3ccccc23)ccc1F)N1CCN(C(=O)C2CC2)CC1 + Cc1cncc(-c2nc(NCCc3c[nH]c4ccccc34)c3ncn(C(C)C)c3n2)c1 : 157

Form field viability, T/C, entry Cn1ncnc1C1c2n[nH]c(=O)c3cc(F)cc(c23)NC1c1ccc(F)cc1 (centres undefined) + Cc1ccccc1N=Nc1ccc(NC(=O)c2ccnn2C)c(C)c1 : 73.5
